# Test system: IFNα-stimulated Kit225 T cells with STAT-dependent luciferase reporter
# run-description: Kit225 T cell assay, STAT-dependent luciferase reporter, IFNα stimulated
# Format: cell-based, human
# test-context: 200 U/mL human recombinant IFNα, 5-6 hours, read-out: IFNa Kit225 Reporter, LE (IC50)
Each entry below carries its recorded pIC50.
Reminder that pIC50 means the negative base-10 logarithm of the concentration expressed in mol/L.

// worked examples, pIC50 included
pIC50 recorded for this compound, `CNc1cc(Nc2cc(F)cn(CC3CC3)c2=O)nn2c(C(=O)NC3CC3)cnc12` , is 6.57

pIC50 recorded for this compound, CNc1cc(Nc2cccn(C)c2=O)nn2c(C(=O)NC3CCCCC3C)cnc12 (stereo not shown) , is 6.52

pIC50 recorded for this compound, `CNc1cc(Nc2cccn(-c3ccnc(F)c3)c2=O)nn2c(C(=O)NC3CC3)cnc12` , is 6.85

pIC50 recorded for this compound, `CNc1cc(Nc2cccn(-c3cccc(C(C)(C)O)n3)c2=O)nn2c(C(=O)NC3CC3)cnc12` , is 6.92

pIC50 recorded for this compound, CNc1cc(Nc2cccn(C3CCC(O)CC3)c2=O)nn2c(C(=O)NC3CC3)cnc12 (stereo not shown) , is 6.43

Next:
pIC50 recorded for this compound, `CNc1cc(Nc2cccn(-c3cccc(F)n3)c2=O)nn2c(C(=O)NCc3ccccn3)cnc12` , is 6.48

pIC50 recorded for this compound, `CNc1cc(Nc2cccn(-c3cccc(F)n3)c2=O)nn2c(C(=O)NCc3nccs3)cnc12` , is 6.74

pIC50 recorded for this compound, `CNc1cc(Nc2cc(Cl)cn(C)c2=O)nn2c(C(=O)NC3CC3)cnc12` , is 7.30

pIC50 recorded for this compound, CCC(C)NC(=O)c1cnc2c(NC)cc(Nc3cccn(C)c3=O)nn12 (single isomer, unassigned) [Example 73] , is 6.92

pIC50 recorded for this compound, `CNc1cc(Nc2cccn(-c3ccc(C(C)(C)O)cc3)c2=O)nn2c(C(=O)NC3(C#N)CC3)cnc12` , is 6.35

----------
# Tested on: IFNα-stimulated Kit225 T cells with STAT-dependent luciferase reporter
# run-description: Kit225 T cell assay, STAT-dependent luciferase reporter, IFNα stimulated
# Format: cell-based, human
# test-context: 200 U/mL human recombinant IFNα, 5-6 hours, read-out: IFNa Kit225 Reporter, LE (IC50)
Each entry below carries its recorded IC50.
# value in nM; strip the unit string

// worked examples, IC50 included
IC50 recorded for this molecule, `CNc1cc(Nc2cccn(C3(C)CC3)c2=O)nn2c(C(=O)NC3(C#N)CC3)cnc12` , is 250

IC50 recorded for this molecule, CCC(C)NC(=O)c1cnc2c(NC)cc(Nc3cccn(-c4ccc(C)nn4)c3=O)nn12 (single isomer, unassigned) , is 130

IC50 recorded for this molecule, `CNc1cc(Nc2cccn(-c3ncc(F)cn3)c2=O)nn2c(C(=O)NC3CC3)cnc12` , is 140

IC50 recorded for this molecule, `CNc1cc(Nc2cccn(C(C)C)c2=O)nn2c(C(=O)NCC(C)(C)CO)cnc12` , is 100

IC50 recorded for this molecule, CCC(C)NC(=O)c1cnc2c(NC)cc(Nc3cccn(C)c3=O)nn12 (single isomer, unassigned) [Example 72] , is 440

IC50 recorded for this molecule, `CNc1cc(Nc2cccn(-c3ccc(F)cn3)c2=O)nn2c(C(=O)NCC(C)(C)CO)cnc12` , is 260

Consider now this further molecule.
IC50 recorded for this molecule, `CNc1cc(Nc2cccn(-c3ccc(C(F)F)cc3)c2=O)nn2c(C(=O)NC3(C#N)CC3)cnc12` , is 80

----------
Each entry below carries its recorded pIC50.
# System: IFNα-stimulated Kit225 T cells with STAT-dependent luciferase reporter
# run-description: Kit225 T cell assay, STAT-dependent luciferase reporter, IFNα stimulated
# Type: cell-based, human
# test-context: Homo sapiens, KIT225, 200 U/mL human recombinant IFNα, 5-6 hours, read-out: IFNa Kit225 Reporter, LE (IC50)
Reminder that pIC50 means the negative base-10 logarithm of the concentration expressed in mol/L.

pIC50 recorded for this molecule, `CNc1cc(Nc2ccnn(-c3ccccc3)c2=O)nn2c(C(=O)N[C@@H]3C[C@@H]3F)cnc12` , is 7.70

pIC50 recorded for this molecule, CNc1cc(Nc2cccn(-c3cccc(C(C)O)n3)c2=O)nn2c(C(=O)NC3CCC3)cnc12 (stereo not shown) , is 7.52

pIC50 recorded for this molecule, `CCOc1ccc(-n2cccc(Nc3cc(NC)c4ncc(C(=O)N[C@@H]5C[C@@H]5F)n4n3)c2=O)nn1` , is 8.00

pIC50 recorded for this molecule, CNc1cc(Nc2cccn(-c3ccccc3)c2=O)nn2c(C(=O)NC(CO)CCl)cnc12 (stereo not shown) , is 6.49

pIC50 recorded for this molecule, `CNc1cc(Nc2cccn(C)c2=O)nn2c(C(=O)NCC(C)(C)CO)cnc12` , is 7.40

Next:
pIC50 recorded for this molecule, CNc1cc(Nc2cccn(-c3cnccn3)c2=O)nn2c(C(=O)NC3CCC(O)C3(C)C)cnc12 (stereo not shown) , is 6.38

pIC50 recorded for this molecule, `CNc1cc(Nc2cccn(-c3ccc(OC)nn3)c2=O)nn2c(C(=O)N[C@@H]3C[C@@H]3F)cnc12` , is 7.70

----------
# System: IL-23-stimulated Kit225 T cells with STAT-dependent luciferase reporter
# run-description: Kit225 T cell assay, STAT-dependent luciferase reporter, IL-23 stimulated
# Format: cell-based, human
# test-context: Homo sapiens, KIT225, 20 ng/mL human recombinant IL-23, 5-6 hours, read-out: IL-23 Kit225 Reporter, LE (IC50)
measured-parameter: pIC50
Reminder that pIC50 means the negative base-10 logarithm of the concentration expressed in mol/L.

// worked examples, pIC50 included
pIC50 recorded for this molecule, `CNc1cc(Nc2cccn(-c3ccc(C(=O)N4CCC4)cn3)c2=O)nn2c(C(=O)N[C@@H]3C[C@@H]3F)cnc12` , is 7.05

pIC50 recorded for this molecule, `CNc1cc(Nc2cccn(-c3ccc(OC)nn3)c2=O)nn2c(C(=O)N[C@@H]3C[C@@H]3F)cnc12` , is 8.00

pIC50 recorded for this molecule, `CCN(C)C(=O)c1ccc(-n2cccc(Nc3cc(NC)c4ncc(C(=O)N[C@@H]5C[C@@H]5F)n4n3)c2=O)nc1` , is 6.80

pIC50 recorded for this molecule, `CNc1cc(Nc2cccn(-c3nccs3)c2=O)nn2c(C(=O)NC3CC3)cnc12` , is 7.70

pIC50 recorded for this molecule, `CNc1cc(Nc2cccn(-c3ccccn3)c2=O)nn2c(C(=O)NCc3nccs3)cnc12` , is 6.59

Next:
pIC50 recorded for this molecule, `CNc1cc(Nc2cccn(-c3cnc(C)cn3)c2=O)nn2c(C(=O)NCC(C)(C)CO)cnc12` , is 7.15

pIC50 recorded for this molecule, `CNc1cc(Nc2ccnn(-c3ccccc3)c2=O)nn2c(C(=O)N[C@@H]3C[C@@H]3F)cnc12` , is 7.30

pIC50 recorded for this molecule, `CNc1cc(Nc2cccn(C3CCN(CC(F)F)CC3)c2=O)nn2c(C(=O)NC3CC3)cnc12` , is 7.00

pIC50 recorded for this molecule, `CNc1cc(Nc2cccn(-c3ccccn3)c2=O)nn2c(C(=O)NC3CC3)cnc12` , is 6.66

pIC50 recorded for this molecule, `CNc1cc(Nc2cccn(C)c2=O)nn2c(C(=O)NCC3CCC3)cnc12` , is 6.44

----------
# Test system: IL-23-stimulated Kit225 T cells with STAT-dependent luciferase reporter
# run-description: Kit225 T cell assay, STAT-dependent luciferase reporter, IL-23 stimulated
# Type: cell-based, human
# test-context: Homo sapiens, KIT225, 20 ng/mL human recombinant IL-23, 5-6 hours, read-out: IL-23 Kit225 Reporter, LE (IC50)
Each entry below carries its recorded IC50.
# value in nM; strip the unit string

// worked examples, IC50 included
IC50 recorded for this compound, CNc1cc(Nc2cccn(-c3ccc(C(C)(C)O)cn3)c2=O)nn2c(C(=O)NC3CC3)cnc12 [Example 252] , is 450

IC50 recorded for this compound, CC[C@@H](C)NC(=O)c1cnc2c(NC)cc(Nc3cccn(-c4ccccn4)c3=O)nn12 [Example 74] , is 170

IC50 recorded for this compound, CNc1cc(Nc2cccn(-c3ccc(C(F)(F)F)cc3)c2=O)nn2c(C(=O)NCC(C)(CO)CO)cnc12 [Example 132] , is 400

Consider now this further compound.
IC50 recorded for this compound, CNc1cc(Nc2cc(F)cn(CCOC)c2=O)nn2c(C(=O)NC3CC3)cnc12 [Example 118] , is 270

----------
# System: IFNα-stimulated Kit225 T cells with STAT-dependent luciferase reporter
# run-description: Kit225 T cell assay, STAT-dependent luciferase reporter, IFNα stimulated
# Type: cell-based, human
# test-context: 200 U/mL human recombinant IFNα, 5-6 hours, read-out: IFNa Kit225 Reporter, LE (IC50)
Each entry below carries its recorded pIC50.
Reminder that pIC50 means the negative base-10 logarithm of the concentration expressed in mol/L.

// worked examples, pIC50 included
pIC50 recorded for this compound, CNc1cc(Nc2cccn(C)c2=O)nn2c(C(=O)NCC(C)(C)CO)cnc12 [Example 117] , is 6.82

pIC50 recorded for this compound, CNc1cc(Nc2cccn(-c3ccccc3)c2=O)nn2c(C(=O)NC3CCCC3O)cnc12 (stereo not shown) [Example 189] , is 6.72

pIC50 recorded for this compound, CNc1cc(Nc2cccn(-c3cncc(C)n3)c2=O)nn2c(C(=O)NCC(C)(C)CO)cnc12 [Example 238] , is 6.28

pIC50 recorded for this compound, CNc1cc(Nc2cc(C)cn(-c3ccc(C)nn3)c2=O)nn2c(C(=O)NC3CCC3)cnc12 [Example 92] , is 6.21

pIC50 recorded for this compound, CNc1cc(Nc2cccn(-c3ccc(F)nc3)c2=O)nn2c(C(=O)NC3CC3)cnc12 [Example 17] , is 6.74

pIC50 recorded for this compound, CNc1cc(Nc2cc(Cl)cn(C)c2=O)nn2c(C(=O)NC3(C#N)CC3)cnc12 [Example 23] , is 7.70

Next:
pIC50 recorded for this compound, CNc1cc(Nc2cccn(-c3ccccc3)c2=O)nn2c(C(=O)NCc3nccs3)cnc12 [Example 182] , is 6.57

pIC50 recorded for this compound, CNc1cc(Nc2cccn(C(C)C)c2=O)nn2c(C(=O)NC3CC3)cnc12 [Example 213] , is 6.38

pIC50 recorded for this compound, CNc1cc(Nc2cccn(-c3ccc(C)nn3)c2=O)nn2c(C(=O)NC(C)C)cnc12 [Example 97] , is 6.96
